Examples of compounds with documented pIC50 follow.
measured_on: USP1-UAF1 (Homo sapiens, UniProt O94782)
Sequence (O94782 whole entry): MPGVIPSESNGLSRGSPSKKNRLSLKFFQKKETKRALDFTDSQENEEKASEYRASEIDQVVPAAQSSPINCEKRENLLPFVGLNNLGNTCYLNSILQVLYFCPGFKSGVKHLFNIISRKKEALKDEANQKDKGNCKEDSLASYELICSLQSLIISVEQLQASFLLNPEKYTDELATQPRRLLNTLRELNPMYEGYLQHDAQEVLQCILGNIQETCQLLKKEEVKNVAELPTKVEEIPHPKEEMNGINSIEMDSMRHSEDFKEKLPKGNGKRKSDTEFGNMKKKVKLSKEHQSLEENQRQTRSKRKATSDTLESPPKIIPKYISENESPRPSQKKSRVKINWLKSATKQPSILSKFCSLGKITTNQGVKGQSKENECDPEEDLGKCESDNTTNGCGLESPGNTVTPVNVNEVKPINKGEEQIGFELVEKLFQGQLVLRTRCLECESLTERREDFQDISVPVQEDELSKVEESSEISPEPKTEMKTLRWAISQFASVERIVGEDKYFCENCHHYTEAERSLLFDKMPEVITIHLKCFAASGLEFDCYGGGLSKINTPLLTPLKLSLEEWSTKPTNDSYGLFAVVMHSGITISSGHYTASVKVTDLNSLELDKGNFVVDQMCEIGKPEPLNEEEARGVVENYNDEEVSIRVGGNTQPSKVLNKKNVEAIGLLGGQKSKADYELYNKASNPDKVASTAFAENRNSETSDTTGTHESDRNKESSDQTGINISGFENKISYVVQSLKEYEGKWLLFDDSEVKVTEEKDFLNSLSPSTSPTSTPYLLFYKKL
Sequence (Q8TAF3 whole entry partner): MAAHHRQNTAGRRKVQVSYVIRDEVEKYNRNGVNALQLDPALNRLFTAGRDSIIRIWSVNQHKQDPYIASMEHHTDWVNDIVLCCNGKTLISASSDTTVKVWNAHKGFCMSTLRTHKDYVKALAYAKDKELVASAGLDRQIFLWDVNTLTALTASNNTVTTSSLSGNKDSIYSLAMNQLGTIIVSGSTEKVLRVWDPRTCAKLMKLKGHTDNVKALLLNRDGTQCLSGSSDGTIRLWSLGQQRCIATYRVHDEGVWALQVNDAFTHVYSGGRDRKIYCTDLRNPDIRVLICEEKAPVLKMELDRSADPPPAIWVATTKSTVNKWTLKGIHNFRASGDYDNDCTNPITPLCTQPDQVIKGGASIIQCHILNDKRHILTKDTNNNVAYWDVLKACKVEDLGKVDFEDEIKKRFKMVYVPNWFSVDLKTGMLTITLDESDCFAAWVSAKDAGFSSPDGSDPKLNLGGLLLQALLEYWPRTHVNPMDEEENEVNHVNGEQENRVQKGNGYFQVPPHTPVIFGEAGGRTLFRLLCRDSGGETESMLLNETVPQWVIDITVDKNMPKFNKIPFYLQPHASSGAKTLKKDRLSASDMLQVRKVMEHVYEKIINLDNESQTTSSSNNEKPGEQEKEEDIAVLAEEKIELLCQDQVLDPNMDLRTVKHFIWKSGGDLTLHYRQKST
assay_name: Ubiquitin Rhodamine assay of USP1-UAF1 activity
Assay type: biochemical
Protocol: Certain compounds of the disclosure were assessed for USP1-UAF1 activity in a Ubiquitin Rhodamine assay as described in Biology Example 1.
pIC50: −log10 of the molar value.

Q. // lookup pIC50 | system=USP1-UAF1 (Homo sapiens, UniProt O94782) | key= "COCCn1cc(C(F)(F)F)nc1-c1ccc(Cn2c(=N)n(C)c3cnc(-c4ccccc4C(F)(F)F)nc32)cc1"
A. 5.00 to 7.00

Q. Again, but for "CC(C)c1ccc(F)cc1-c1ncc2c(n1)n(Cc1ccc(-c3nc(C(F)(F)F)cn3C)cc1)c(=N)n2C"
A. > 7.52

Q. Again, but for "C=C(C)c1ccccc1-c1ncc2c(n1)n(Cc1ccc(-c3nc(C(F)(F)F)cn3C)cc1)c(=N)n2C"
A. > 7.52

Q. Again, but for "CNC(=O)c1nc(-c2ccccc2C(C)C)nc2c1n(C)c(=N)n2Cc1ccc(-c2nc(C(F)(F)F)cn2C)cc1"
A. 5.00 to 7.00

###

measured_on: USP1-UAF1 (Homo sapiens, UniProt O94782)
quantity_measured: IC50

Some compounds with recorded IC50:
compound | IC50
COc1ncnc(C(F)(F)F)c1-c1ncc2c(n1)n(Cc1ccc(-n3nc(C(F)(F)F)cc3OC)cc1)c(=N)n2CC(F)(F)F | 30 to 100 nM
CC(C)c1ccccc1-c1ncc2c(n1)n(Cc1ccc(-c3ncc(C(F)(F)F)n3C)cc1)c(=N)n2C | 100 to 10000 nM
Cn1cc(C(F)(F)F)nc1-c1ccc(Cn2c(=N)n(C)c3cnc(-c4c(C5CC5)cnn4C)nc32)cc1 | 100 to 10000 nM
CC#Cc1nc(-c2ccccc2Cl)nc2c1n(C)c(=N)n2Cc1ccc(-c2nc(Cl)cn2C)cc1 | 100 to 10000 nM
COc1ncnc(C2CC2)c1-c1ncc2c(n1)n(Cc1ccc(-c3nc(C(F)(F)F)sc3C)cc1)c(=N)n2CC(F)(F)F | < 30 nM

Q. // lookup IC50 | system=USP1-UAF1 (Homo sapiens, UniProt O94782) | key= "COc1cc(C(F)(F)F)nn1-c1ccc(Cn2c(=N)n(CC(F)(F)F)c3cnc(-c4c(C)cnn4C(C)C)nc32)cc1"
A. < 30 nM

Q. Again, but for "COc1ncccc1-c1ncc2c(n1)n(Cc1ccc(-c3nc(C(F)(F)F)cn3CCF)cc1)c(=N)n2C"
A. 100 to 10000 nM

Q. Again, but for "COc1cc(C(F)(F)F)nn1-c1ccc(Cn2c(=N)n(C)c3cnc(-c4ccccc4C(F)(F)F)nc32)cn1"
A. 100 to 10000 nM

Q. Again, but for "COc1ncnc(C2CC2)c1-c1ncc2c(n1)n(Cc1ccc(-n3nc(C(F)(F)F)cc3OC)cc1)c(=N)n2CC(F)F"
A. < 30 nM

Q. Again, but for "Cn1cc(C(F)(F)F)nc1-c1ccc(Cn2c(=N)n(C)c3cnc(-c4cccc(F)c4OC(F)F)nc32)cc1"
A. 30 to 100 nM

Q. Again, but for "COc1nccc(C)c1-c1ncc2c(n1)n(Cc1ccc(-c3nc(C(F)(F)F)cn3C)cc1)c(=N)n2C"
A. 100 to 10000 nM

Q. Again, but for "CC(C)c1ccccc1-c1nc(N(C)C)c2c(n1)n(Cc1ccc(-c3nc(C(F)(F)F)cn3C)cc1)c(=N)n2C"
A. 100 to 10000 nM

Q. Again, but for "COc1ncnc(C(F)(F)F)c1-c1ncc2c(n1)n(Cc1ccc(-c3nc(C(F)(F)F)cn3C)cc1)c(=N)n2CC(F)(F)F"
A. 30 to 100 nM

Q. Again, but for CC(C)c1ccccc1-c1ncc2c(n1)n(CC1CCC(c3nc(C(F)(F)F)cn3C)CC1)c(=N)n2C (centres unmarked)
A. 100 to 10000 nM
